Parameter IC50: see the listing below.
Tested on: HeLa
Assay: Antiproliferative activity against human HeLa cells by SRB assay
Assay type: functional, cell-based

Just so you know, measured IC50 for "CC(=O)O[C@@H]1[C@H]2[C@H]3[C@H]([C@H](OC(C)=O)[C@H](OC(C)=O)[C@]2(C)[C@@H]2[C@@H]1[C@]1(C)C(=C[C@@]2(C)OO)OC(=O)[C@@]1(C)O)[C@]1(C)[C@H](C[C@@H]2O[C@@H]2[C@@H]1OC(C)=O)C(=O)[C@@H]3O" came out at > 50 µM

Entry "CC(=O)O[C@H]1[C@@H]2[C@H]([C@H](C)C=C3OC(=O)[C@@](C)(O)[C@@]32C)[C@]2(C)[C@@H]1C1=C(O)C(=O)[C@H]3C[C@@H]4O[C@@H]4[C@H](OC(C)=O)[C@]3(C)[C@H]1[C@H](OC(C)=O)[C@@H]2OC(C)=O" ; IC50 = 0.73 µM

For this compound ( "CC(=O)O[C@@H]1[C@H]2[C@H]3[C@H]([C@H](OC(C)=O)[C@H](OC(C)=O)[C@]2(C)[C@@H]2[C@@H]1[C@]1(C)C(=C[C@H]2C)OC(=O)[C@@]1(C)O)[C@]1(C)[C@H](C[C@@H]2O[C@@H]2[C@@H]1OC(C)=O)C(=O)C3(O)O" ), measured IC50 is 5 µM

So for "CC(=O)O[C@@H]1[C@H]2[C@@H]3C(=O)C(O)=C4C[C@@H]5O[C@@H]5[C@H](OC(C)=O)[C@]4(C)[C@H]3[C@H](OC(C)=O)[C@H](OC(C)=O)[C@]2(C)[C@@H]2[C@@H]1[C@]1(C)C(=C[C@H]2C)OC(=O)[C@@]1(C)O" , the logged IC50 turned out to be 3.4 µM

Values compiled from ChEMBL document CHEMBL3351965.
